experimentalDetails: Pilot PK study of orally applied KB-R7943 in control and STZ-induced diabetic rats (LC-MS/MS)
Assay type: in vivo, rat
assaySetup: Wistar, rat, hippocampus, po, 10 mg/kg, hippocampus, STZ-diabetic rats, 10 mg/kg p.o. once; read-out: AUC(0-24)
valueKind: AUC(0-t) (ng·h/mL)
Give the value in ng·h/mL but do not write ng·h/mL after it.

Kindly note the recorded AUC(0-t) for N=C(N)SCCc1ccc(OCc2ccc([N+](=O)[O-])cc2)cc1 , which is 645

----------
experimentalDetails: Pilot PK study of orally applied KB-R7943 in control and STZ-induced diabetic rats (LC-MS/MS)
Format: in vivo, rat
assaySetup: Wistar, rat, cortex, po, 10 mg/kg, cortex, control rats, 10 mg/kg p.o. once; read-out: AUC(0-24)
valueKind: AUC(0-t) (ng·h/mL)
Numeric only. Scale: ng·h/mL

The recorded AUC(0-t) for N=C(N)SCCc1ccc(OCc2ccc([N+](=O)[O-])cc2)cc1 is 232

----------
experimentalDetails: Pilot PK study of orally applied KB-R7943 in control and STZ-induced diabetic rats (LC-MS/MS)
Format: in vivo, rat
assaySetup: Wistar, rat, hippocampus, po, 10 mg/kg, STZ-diabetic rats, 10 mg/kg p.o. once
valueKind: half-life (h)
Number in h, nothing else.

The compound listed as N=C(N)SCCc1ccc(OCc2ccc([N+](=O)[O-])cc2)cc1 shows half-life equal to 11.6

----------
experimentalDetails: Pilot PK study of orally applied KB-R7943 in control and STZ-induced diabetic rats (LC-MS/MS)
Assay type: in vivo, rat
assaySetup: Wistar, rat, cortex, po, 10 mg/kg, control rats, 10 mg/kg p.o. once
Procedure: Chromatographic separation was achieved by injecting 5 μL of the sample extract (on each instrument) into a Zorbax SB-C8 150 mm × 4.6 mm × 1.8 μm column. The mobile phase was a mixture in a gradient mode of two components: solvent A - 0.1% formic acid in water and solvent B - 0.1% formic acid in acetonitrile. […] Analytes were determined by selecting two characteristic target reactions (MRM transitions) and the retention time of the analytes. […]
valueKind: Cmax (ng/mL)
Note: unit ng/mL is implicit; provide only the numeric part.

The recorded Cmax for entry N=C(N)SCCc1ccc(OCc2ccc([N+](=O)[O-])cc2)cc1 equals 11.5

----------
experimentalDetails: Pilot PK study of orally applied KB-R7943 in control and STZ-induced diabetic rats (LC-MS/MS)
Format: in vivo, rat
assaySetup: Wistar, rat, cortex, po, 10 mg/kg, STZ-diabetic rats, 10 mg/kg p.o. once
valueKind: Tmax (h)
Give the value in h but do not write h after it.

Measured Tmax of N=C(N)SCCc1ccc(OCc2ccc([N+](=O)[O-])cc2)cc1 : 1

----------
experimentalDetails: Pilot PK study of orally applied KB-R7943 in control and STZ-induced diabetic rats (LC-MS/MS)
Format: in vivo, rat
assaySetup: Wistar, rat, cortex, po, 10 mg/kg, cortex, STZ-diabetic rats, 10 mg/kg p.o. once; read-out: AUC(0-24) tissue/AUC (0-24) plasma
valueKind: Kp
Answer with the value's number alone.

Entry N=C(N)SCCc1ccc(OCc2ccc([N+](=O)[O-])cc2)cc1 [KB-R7943] — recorded Kp = 14.5

----------
experimentalDetails: Pilot PK study of orally applied KB-R7943 in control and STZ-induced diabetic rats (LC-MS/MS)
Assay type: in vivo, rat
assaySetup: Wistar, rat, hippocampus, po, 10 mg/kg, STZ-diabetic rats, 10 mg/kg p.o. once
valueKind: Tmax
Field: value (include unit after the number)

Entry N=C(N)SCCc1ccc(OCc2ccc([N+](=O)[O-])cc2)cc1 — recorded Tmax = 1 h

----------
experimentalDetails: Pilot PK study of orally applied KB-R7943 in control and STZ-induced diabetic rats (LC-MS/MS)
Type: in vivo, rat
assaySetup: Wistar, rat, plasma, po, 10 mg/kg, control rats, 10 mg/kg p.o. once
valueKind: Cmax
Numeric answer plus unit only.

// recorded Cmax for N=C(N)SCCc1ccc(OCc2ccc([N+](=O)[O-])cc2)cc1 : 3.2 ng/mL

----------
experimentalDetails: Pilot PK study of orally applied KB-R7943 in control and STZ-induced diabetic rats (LC-MS/MS)
Type: in vivo, rat
assaySetup: Wistar, rat, plasma, po, 10 mg/kg, control rats, 10 mg/kg p.o. once
valueKind: AUC(0-inf)

Entry N=C(N)SCCc1ccc(OCc2ccc([N+](=O)[O-])cc2)cc1 ; AUC(0-inf) = 17.7 ng·h/mL

----------
experimentalDetails: Pilot PK study of orally applied KB-R7943 in control and STZ-induced diabetic rats (LC-MS/MS)
Type: in vivo, rat
assaySetup: Wistar, rat, plasma, po, 10 mg/kg, control rats, 10 mg/kg p.o. once
Procedure: Chromatographic separation was achieved by injecting 5 μL of the sample extract (on each instrument) into a Zorbax SB-C8 150 mm × 4.6 mm × 1.8 μm column. The mobile phase was a mixture in a gradient mode of two components: solvent A - 0.1% formic acid in water and solvent B - 0.1% formic acid in acetonitrile. […] Analytes were determined by selecting two characteristic target reactions (MRM transitions) and the retention time of the analytes. […]
valueKind: Tmax (h)
Value expressed in h; do not type the unit.

Entry N=C(N)SCCc1ccc(OCc2ccc([N+](=O)[O-])cc2)cc1 [KB-R7943] — recorded Tmax = 1

----------
experimentalDetails: Pilot PK study of orally applied KB-R7943 in control and STZ-induced diabetic rats (LC-MS/MS)
Type: in vivo, rat
assaySetup: Wistar, rat, plasma, po, 10 mg/kg, STZ-diabetic rats, 10 mg/kg p.o. once
valueKind: half-life (h)
Please respond with the number in h and leave the unit unwritten.

Sure, the documented half-life for N=C(N)SCCc1ccc(OCc2ccc([N+](=O)[O-])cc2)cc1 is 4.2

----------
experimentalDetails: Pilot PK study of orally applied KB-R7943 in control and STZ-induced diabetic rats (LC-MS/MS)
Type: in vivo, rat
assaySetup: Wistar, rat, heart, po, 10 mg/kg, control rats, 10 mg/kg p.o. once
valueKind: Tmax (h)
Return type: number; implicit unit h.

Tmax measured on N=C(N)SCCc1ccc(OCc2ccc([N+](=O)[O-])cc2)cc1 = 1

----------
experimentalDetails: Pilot PK study of orally applied KB-R7943 in control and STZ-induced diabetic rats (LC-MS/MS)
Type: in vivo, rat
assaySetup: Wistar, rat, hypothalamus, po, 10 mg/kg, hypothalamus, STZ-diabetic rats, 10 mg/kg p.o. once; read-out: AUC(0-24) tissue/AUC (0-24) plasma
valueKind: Kp
Lab note: write the figure by itself, no unit.

Kp recorded for this molecule, N=C(N)SCCc1ccc(OCc2ccc([N+](=O)[O-])cc2)cc1 [KB-R7943] , is 11

----------
experimentalDetails: Pilot PK study of orally applied KB-R7943 in control and STZ-induced diabetic rats (LC-MS/MS)
Assay type: in vivo, rat
assaySetup: Wistar, rat, hippocampus, po, 10 mg/kg, control rats, 10 mg/kg p.o. once
valueKind: Tmax (h)
// return numeric value only (unit: h, not printed)

Form field Tmax, entry N=C(N)SCCc1ccc(OCc2ccc([N+](=O)[O-])cc2)cc1 [KB-R7943] : 24

----------
experimentalDetails: Pilot PK study of orally applied KB-R7943 in control and STZ-induced diabetic rats (LC-MS/MS)
Format: in vivo, rat
assaySetup: Wistar, rat, hypothalamus, po, 10 mg/kg, hypothalamus, control rats, 10 mg/kg p.o. once; read-out: AUC(0-24) tissue/AUC (0-24) plasma
valueKind: Kp
Please give only the number in your answer, with no unit.

For record N=C(N)SCCc1ccc(OCc2ccc([N+](=O)[O-])cc2)cc1 the listed Kp is 13.1

----------
experimentalDetails: Pilot PK study of orally applied KB-R7943 in control and STZ-induced diabetic rats (LC-MS/MS)
Assay type: in vivo, rat
assaySetup: Wistar, rat, heart, po, 10 mg/kg, heart, STZ-diabetic rats, 10 mg/kg p.o. once; read-out: AUC(0-24) tissue/AUC (0-24) plasma
valueKind: Kp
Give only the figure.

So for N=C(N)SCCc1ccc(OCc2ccc([N+](=O)[O-])cc2)cc1 , the logged Kp turned out to be 499

----------
experimentalDetails: Pilot PK study of orally applied KB-R7943 in control and STZ-induced diabetic rats (LC-MS/MS)
Assay type: in vivo, rat
assaySetup: Wistar, rat, cortex, po, 10 mg/kg, cortex, control rats, 10 mg/kg p.o. once; read-out: AUC(0-24) tissue/AUC (0-24) plasma
valueKind: Kp
A bare number is all that is needed in reply.

N=C(N)SCCc1ccc(OCc2ccc([N+](=O)[O-])cc2)cc1 has a reported Kp of 14.2

----------
experimentalDetails: Pilot PK study of orally applied KB-R7943 in control and STZ-induced diabetic rats (LC-MS/MS)
Type: in vivo, rat
assaySetup: Wistar, rat, hypothalamus, po, 10 mg/kg, hypothalamus, control rats, 10 mg/kg p.o. once; read-out: AUC(0-24)
valueKind: AUC(0-t) (ng·h/mL)
The figure you give is taken to be in ng·h/mL; do not add the unit.

N=C(N)SCCc1ccc(OCc2ccc([N+](=O)[O-])cc2)cc1 has a reported AUC(0-t) of 215
